Where do the numbers come from? From PubChem BioAssay AID1159580.

# MEASUREMENT_NOTES: chemical genetic growth profiling, strain panel (AID 1159580);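 further: tested at 20 µM; growth read once vehicle control cultures reached saturation at 30 °C; lower values mean less growth of the strain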
# CONDITION_LABEL: S. cerevisiae deletion strains, growth OD, locus YBR021W, strain FUR4, active compounds read low
Screen size: about 5,500 compounds; about 2,000 (36%) were called active. Roughly 18% stayed inconclusive and do not appear here. Some of the results follow.
In plain terms, low normalized growth, meaning strictly below 1, gives Yes, and everything else gives No.

{"columns": ["COMPOUND", "CLASS_LABEL"],
 "data": [
  ["C=C1C(=O)O[C@@H]2C3O[C@]3(C)CC/C=C(\\C)CC[C@@H]12 (some centres undefined)", "No"],
  ["CC1(C)O[C@@H]2CC3C4CCC5=CC(=O)CCC5(C)C4(F)C(O)CC3(C)[C@]2(C(=O)CCl)O1 (some centres undefined)", "No"],
  ["C=C1C(=O)OC2CC1C(OC(C)=O)C/C(C)=C/CC/C(C)=C/CC[C@]2(C)O (some centres undefined)", "No"]
]}

Please find the next compound below.
Problem: Does this compound meet the criterion normalized growth < 1? `COc1cc(-c2coc3cc(OCc4ccccc4)c(OC)c(O)c3c2=O)cc(O)c1OC`
Solution: Yes
